Molecular target: recombinant human JAK1 kinase domain protein (Residues 854-1154) (Homo sapiens, UniProt P23458)
Construct: human JAK1 kinase domain protein (Residues 854-1154)
Sequence (P23458 854-1154): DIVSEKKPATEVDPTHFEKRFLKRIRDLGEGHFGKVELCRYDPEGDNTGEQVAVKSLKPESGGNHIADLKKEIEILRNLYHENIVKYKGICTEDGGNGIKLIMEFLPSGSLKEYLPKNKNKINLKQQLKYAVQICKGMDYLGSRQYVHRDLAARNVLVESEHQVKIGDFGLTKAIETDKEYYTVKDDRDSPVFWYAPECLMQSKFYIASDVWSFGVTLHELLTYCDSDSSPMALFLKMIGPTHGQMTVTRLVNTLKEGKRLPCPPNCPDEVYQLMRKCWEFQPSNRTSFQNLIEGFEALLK
Assay: JAK1 biochemical assay (LabChip mobility shift, Ki)
Details: read-out: Biochem JAK1 Ki
pKi: −log10 of the molar value.
measured_parameter: pKi

Below are worked cases with known answers.
[[record]]
compound = "CN1CCN(C(=O)c2ccc(Oc3ccc(OC(F)F)c(-c4nn(C)cc4NC(=O)c4cnn5cccnc45)c3)cc2)CC1 [Example 86]"
readout_number = 8.96

[[record]]
compound = "Cn1cc(NC(=O)c2cnn3cccnc23)c(-c2cc(Oc3ccc4c(c3)CN(C3COC3)CC4)ccc2OC(F)F)n1 [Example 69]"
readout_number = 8.89

[[record]]
compound = "Cn1cc(NC(=O)c2cnn3cccnc23)c(-c2cc(Oc3cccc(CNC4COC4)c3)ccc2OC(F)F)n1 [Example 29]"
readout_number = 8.92


1. CN1CCCC1Cn1cc(NC(=O)c2cnn3cccnc23)c(-c2cc(Oc3cccc(C4CNCCO4)c3)ccc2OC(F)F)n1 (racemic) [Example 41]
2. CN1CCCC(O)(Cn2cc(Oc3ccc(OC(F)F)c(-c4nn(C)cc4NC(=O)c4cnn5cccnc45)c3)cn2)CC1 (centres unmarked) [Example 196]
Field: entry with larger pKi (options 1 / 2 ). Lab note: record the label of whichever item you select.
2

P. COCCNCc1cccc(Oc2ccc(OC(F)F)c(-c3nn(C)cc3NC(=O)c3cnn4cccnc34)c2)c1 [Example 27]
Q. Cn1cc(NC(=O)c2cnn3cccnc23)c(-c2cc(Oc3ccc(CN4CCCCC4CO)cc3)ccc2OC(F)F)n1 (racemic) [Example 167]
Hi, I'm comparing two records. Which one has the lower pKi, P or Q ? Lab note: record the label of whichever item you select.
Q
(Q: 8.72, P: 9.14)

* * *

Molecular target: recombinant human JAK1 kinase domain protein (Residues 854-1154) (Homo sapiens, UniProt P23458)
Construct: human JAK1 kinase domain protein (Residues 854-1154)
Experiment: JAK1 biochemical assay (LabChip mobility shift, Ki)
Conditions: read-out: Biochem JAK1 Ki
pKi: −log10 of the molar value.
measured_parameter: pKi

Below are worked cases with known answers.
[[record]]
compound = "Cn1cc(NC(=O)c2cnn3cccnc23)c(-c2cc(Oc3cnn(C4COC4)c3)ccc2OC(F)F)n1"
measured_parameter = "pKi"
readout_number = 9.08

[[record]]
compound = "CC(=O)c1cc(Oc2ccc(OC(F)F)c(-c3n[nH]cc3NC(=O)c3cnn4cccnc34)c2)ccc1C"
measured_parameter = "pKi"
readout_number = 9.35

[[record]]
compound = "Cn1cc(NC(=O)c2cnn3cccnc23)c(-c2cc(Oc3ccc(C4(CC#N)COC4)cc3)ccc2OC(F)F)n1"
measured_parameter = "pKi"
readout_number = 9.55

[[record]]
compound = "Cn1cc(NC(=O)c2cnn3cccnc23)c(-c2cc(Oc3ccc4c(c3)CCNC4)ccc2OC(F)F)n1"
measured_parameter = "pKi"
readout_number = 8.77

[[record]]
compound = "CN(CCO)Cc1cccc(Oc2ccc(OC(F)F)c(-c3nn(C)cc3NC(=O)c3cnn4cccnc34)c2)c1"
measured_parameter = "pKi"
readout_number = 9.47

[[record]]
compound = "CC(=O)n1cc(Oc2ccc(OC(F)F)c(-c3nn(C)cc3NC(=O)c3cnn4cccnc34)c2)cn1"
measured_parameter = "pKi"
readout_number = 9.55


1. Cn1cc(NC(=O)c2cnn3cccnc23)c(-c2cc(Oc3cnn(C4CNCC4O)c3)ccc2OC(F)F)n1 (centres unmarked) [Example 177]
2. CN(C)C(=O)c1cc(Oc2ccc(OC(F)F)c(-c3nn(C)cc3NC(=O)c3cnn4cccnc34)c2)ccc1Cl
Hi, I'm comparing two records. Which one has the lower pKi, 1 or 2 ? Lab note: record the label of whichever item you select.
1
(1: 9.24, 2: 9.51)

* * *

Biological target: recombinant human JAK1 kinase domain protein (Residues 854-1154) (Homo sapiens, UniProt P23458)
Construct: human JAK1 kinase domain protein (Residues 854-1154); purchased Proteros Biostructures GmbH (Martinsried, Germany); host or cells: insect cells
Assay: JAK1 biochemical assay (LabChip mobility shift, Ki)
Details: read-out: Biochem JAK1 Ki
measured_parameter: Ki (nM)

Below are worked cases with known answers.
[[record]]
molecule = "Cn1cc(NC(=O)c2cnn3cccnc23)c(-c2cc(Oc3ccc(CN4CCC[C@@H](O)C4)cc3)ccc2OC(F)F)n1 (racemic)"
unit_name = "nM"
readout_number = 1.5

[[record]]
molecule = "Cn1cc(NC(=O)c2cnn3cccnc23)c(-c2cc(Oc3ccc(CN4CCC(CO)C4)cc3)ccc2OC(F)F)n1 (racemic)"
unit_name = "nM"
readout_number = 4.1

[[record]]
molecule = "Cn1cc(NC(=O)c2cnn3cccnc23)c(-c2cc(Oc3cncc(CN)c3)ccc2OC(F)F)n1"
unit_name = "nM"
readout_number = 2.6

[[record]]
molecule = "Cn1cc(NC(=O)c2cnn3cccnc23)c(-c2cc(Oc3cccc(C(=O)N4CCNCC4)c3)ccc2OC(F)F)n1"
unit_name = "nM"
readout_number = 0.35


1. Cn1cc(NC(=O)c2cnn3cccnc23)c(-c2cc(Oc3ccc(CN4CC[C@@H](CO)C4)cc3)ccc2OC(F)F)n1 (racemic)
2. Cn1cc(NC(=O)c2cnn3cccnc23)c(-c2cc(Oc3ccc(F)c(C4(O)CNC4)c3)ccc2OC(F)F)n1
Hi, I'm comparing two records. Which one has the lower Ki, 1 or 2 ? Lab note: record the label of whichever item you select.
2
(2: 0.48 nM, 1: 6.2 nM)

* * *

Target: recombinant human JAK1 kinase domain protein (Residues 854-1154) (Homo sapiens, UniProt P23458)
Construct: human JAK1 kinase domain protein (Residues 854-1154)
Assay: JAK1 biochemical assay (LabChip mobility shift, Ki)
Conditions: read-out: Biochem JAK1 Ki
measured_parameter: Ki (nM)

[[record]]
molecule = "CN(CCN1CCOCC1)C(=O)c1cccc(Oc2ccc(OC(F)F)c(-c3nn(C)cc3NC(=O)c3cnn4cccnc34)c2)c1"
readout_number = 1.1

[[record]]
molecule = "Cn1cc(NC(=O)c2cnn3cccnc23)c(-c2cc(Oc3cccc(CNCCN4CCOCC4)c3)ccc2OC(F)F)n1"
readout_number = 2

[[record]]
molecule = "CN1CCN(C(=O)Cn2cc(Oc3ccc(OC(F)F)c(-c4nn(C)cc4NC(=O)c4cnn5cccnc45)c3)cn2)CC1"
readout_number = 0.59

[[record]]
molecule = "CC(O)Cn1cc(Oc2ccc(OC(F)F)c(-c3nn(C)cc3NC(=O)c3cnn4cccnc34)c2)cn1 (racemic)"
readout_number = 0.28

[[record]]
molecule = "CN(C)C(=O)Cc1ccc(Oc2ccc(OC(F)F)c(-c3nn(C)cc3NC(=O)c3cnn4cccnc34)c2)cc1"
readout_number = 0.27

[[record]]
molecule = "Cn1cc(NC(=O)c2cnn3cccnc23)c(-c2cc(Oc3ccc(CN4CCCC4CO)cc3)ccc2OC(F)F)n1 (racemic)"
readout_number = 1.7

[[record]]
molecule = "NCc1cccc(Oc2ccc(OC(F)F)c(-c3n[nH]cc3NC(=O)c3cnn4cccnc34)c2)c1"
readout_number = 0.23

[[record]]
molecule = "CN1CCC(n2cc(Oc3ccc(OC(F)F)c(-c4nn(C)cc4NC(=O)c4cnn5cccnc45)c3)cn2)C(O)C1 (centres unmarked) [Example 186]"
readout_number = 0.76

[[record]]
molecule = "Cn1cc(NC(=O)c2cnn3cccnc23)c(-c2cc(Oc3ccnc(CN)c3)ccc2OC(F)F)n1"
readout_number = 0.97

[[record]]
molecule = "O=C(Nc1c[nH]nc1-c1cc(Oc2cccc(C3(O)CNC3)c2)ccc1OC(F)F)c1cnn2cccnc12"
readout_number = 0.82


1. Cn1cc(NC(=O)c2cnn3cccnc23)c(-c2cc(Oc3cnn(C4CNCC4O)c3)ccc2OC(F)F)n1 (centres unmarked) [Example 176]
2. CN(Cc1cccc(Oc2ccc(OC(F)F)c(-c3nn(C)cc3NC(=O)c3cnn4cccnc34)c2)c1)CC(C)(C)C#N
Field: entry with larger Ki (options 1 / 2 ). Lab note: record the label of whichever item you select.
2

a. CCn1cc(NC(=O)c2cnn3cccnc23)c(-c2cc(Oc3cccc(C4(O)CNC4)c3)ccc2OC(F)F)n1
b. NCc1ccnn1-c1cccc(Oc2ccc(OC(F)F)c(-c3n[nH]cc3NC(=O)c3cnn4cccnc34)c2)c1
Field: entry with larger Ki (options a / b ). Lab note: record the label of whichever item you select.
b

* * *

Target: Recombinant human JAK2 kinase domain protein (Residues 812-1132) (Homo sapiens, UniProt O60674)
Sequence (O60674 812-1132): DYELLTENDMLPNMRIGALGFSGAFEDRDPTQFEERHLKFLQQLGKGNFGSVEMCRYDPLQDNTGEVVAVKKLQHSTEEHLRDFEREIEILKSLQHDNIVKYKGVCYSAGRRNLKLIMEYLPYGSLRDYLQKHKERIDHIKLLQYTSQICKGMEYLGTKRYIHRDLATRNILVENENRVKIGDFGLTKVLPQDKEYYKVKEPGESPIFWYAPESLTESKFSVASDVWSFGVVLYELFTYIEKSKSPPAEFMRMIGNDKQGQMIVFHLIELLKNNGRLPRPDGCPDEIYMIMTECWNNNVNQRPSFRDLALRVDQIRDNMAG
Assay: JAK2 biochemical assay (LabChip mobility shift, Ki)
Details: Biochem JAK2 Ki
measured_parameter: Ki (pM)

Below are worked cases with known answers.
[[record]]
compound = "CN1CC(O)(c2cc(Oc3ccc(OC(F)F)c(-c4nn(C)cc4NC(=O)c4cnn5cccnc45)c3)cc(C3CC3)c2)C1"
unit_name = "pM"
readout_number = 360

[[record]]
compound = "CN1CCC(O)(Cn2cc(Oc3ccc(OC(F)F)c(-c4nn(C)cc4NC(=O)c4cnn5cccnc45)c3)cn2)CC1"
unit_name = "pM"
readout_number = 190

[[record]]
compound = "Cc1cc(Oc2ccc(OC(F)F)c(-c3nn(C)cc3NC(=O)c3cnn4cccnc34)c2)cc(C2(O)CN(C)C2)c1"
unit_name = "pM"
readout_number = 430


A. CCCN(CCCO)Cc1ccc(Oc2ccc(OC(F)F)c(-c3nn(C)cc3NC(=O)c3cnn4cccnc34)c2)cc1
B. CN1CC(O)(c2cncc(Oc3ccc(OC(F)F)c(-c4nn(C)cc4NC(=O)c4cnn5cccnc45)c3)c2)C1
Hi, I'm comparing two records. Which one has the lower Ki, A or B ? Lab note: record the label of whichever item you select.
B
(B: 390 pM, A: 2200 pM)

a. CN1CCc2cc(Oc3ccc(OC(F)F)c(-c4nn(C)cc4NC(=O)c4cnn5cccnc45)c3)ccc2C1
b. CN1CC(O)(c2cccc(Oc3ccc(OC(F)F)c(-c4nn(C)cc4NC(=O)c4cnn5cccnc45)c3)c2)C1
c. Cn1cc(NC(=O)c2cnn3cccnc23)c(-c2cc(Oc3cnn(C4CCC4O)c3)ccc2OC(F)F)n1 (centres unmarked) [Example 135]
Please list these compounds in decreasing order of Ki. Please express your ranking as an ordered list of the labels.
a, b, c
(a: 570 pM, b: 250 pM, c: 160 pM)
